molecular target: Cyclin-dependent kinase 8 (Homo sapiens); test: Inhibition of CDK8 in human HCT-116 cells transfected with TOPFlash luciferase reporter plasmid assessed as reduction in TCF/LEF transcriptional activity; type: cell-based
Sequence (P49336 whole entry): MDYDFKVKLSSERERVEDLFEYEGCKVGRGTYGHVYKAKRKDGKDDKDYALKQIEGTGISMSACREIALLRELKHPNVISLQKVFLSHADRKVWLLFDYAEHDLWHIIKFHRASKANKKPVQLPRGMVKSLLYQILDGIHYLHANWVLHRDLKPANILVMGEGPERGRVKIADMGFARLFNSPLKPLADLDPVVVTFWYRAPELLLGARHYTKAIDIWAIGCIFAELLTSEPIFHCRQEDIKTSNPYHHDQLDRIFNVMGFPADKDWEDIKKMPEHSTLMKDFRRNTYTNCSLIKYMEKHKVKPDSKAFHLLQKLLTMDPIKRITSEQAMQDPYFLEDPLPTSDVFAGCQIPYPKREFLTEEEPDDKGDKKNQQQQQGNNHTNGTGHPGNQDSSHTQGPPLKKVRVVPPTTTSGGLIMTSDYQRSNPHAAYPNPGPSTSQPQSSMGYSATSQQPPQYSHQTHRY
Outcome measure: IC50 (µM)
Give a bare numeral; the unit µM is implied.

// known answers, use as guide
O=C(NCCc1cccc(-c2cnc3[nH]ccc3c2)c1)c1cccc(C(F)(F)F)c1 :: 6.8
Cc1c(Br)c(Br)c2c3c1nc(N1CCNCC1)n3CCC2 :: 7.4

Field: next compound
Problem: For Cn1ncc2cc(-c3cncc(Cl)c3N3CCC4(CCNC4=O)CC3)ccc21 , what is its reported IC50?
Result: 1.1
